Ref: PubChem BioAssay (NCI)

Test system: SNB-75 CNS
Assay: NCI tumour cell line growth inhibition, 48 h
I'd appreciate it if you could supply TGI values for the items below.
Numbers only here, please. The scale is µM.

Lookup: TGI / SNB-75 CNS / Oc1ccc(Cl)cc1-c1cc(-c2ccccc2)nc(=S)[nH]1
59.2

Subsequent entry: NC1=NC(SCc2ccccc2CCl)c2ncn(Cc3ccccc3CCl)c2N1 (stereo not drawn)
5.47

Now the compound CN1CCC(c2c(O)cc(O)c3c(=O)cc(-c4ccccc4Cl)oc23)C(O)C1 (stereo not drawn)
0.18

Cool, now COc1cccc(C(C#N)NNC(=O)c2c(Cl)c(Cl)c(Cl)c(Cl)c2-c2nc3ccc(C(=O)c4ccccc4)cc3[nH]2)c1O (stereo not drawn)
7.46

----------
Tested on: HL-60(TB) leukemia
Assay: NCI tumour cell line growth inhibition, 48 h
Where a SMILES comes first, the peptide text is derived from it. [ ]: non-standard residue; d: D form. The star is where a group is joined. Phe(4-NO2) = N[CH](Cc1ccc([N+](=O)[O-])cc1)C(=O)O; Boc = CC(C)(C)OC(=O)*
READOUT_NAME: TGI

I have this molecule here, COc1ccc(Br)c(CN2CCc3ccccc32)c1OS(=O)(=O)c1ccc(C)cc1 , and I need its recorded TGI.
> 100 µM

And Cc1c(OCc2cccc3ccccc23)ccc2c(=O)cc(SCCN3CCOCC3)oc12 ?
> 100 µM

And for O=C(c1ccccc1)c1nnn(Cc2ccccc2Cn2nnc(C(=O)c3ccccc3)c2C(=O)c2ccccc2)c1C(=O)c1ccccc1 ?
> 100 µM

What do you have for COc1c(OC)c(OC)c2c(=O)cc(-c3ccc(OC(C)C)cc3)oc2c1OC ?
13 µM

Follow-up item: COc1ccc(C2NN=C3c4ccccc4CCC32)cc1 (stereo not drawn)
5.27 µM

Please do the same for CCOC(=O)CCC(NC(=O)C(Cc1ccc([N+](=O)[O-])cc1)NC(=O)OC(C)(C)C)C(=O)NC(CCC(=O)OCC)C(=O)OCC (stereo not drawn) (Boc-[Phe(4-NO2)]-Glu(OEt)-Glu(OEt)-OEt; configuration not given here) as well.
44 µM

Next record, please: CC(C)OP(=O)(OC(C)C)C(C(C)C)N(C)C(N)=NC#N (stereo not drawn)
> 100 µM

Also Cc1cc(C)c2c(c1)C/C(=C\c1cccc(C)c1C(=O)O)C2=O , if possible.
> 100 µM

----------
Test system: UACC-62 melanoma
Test: NCI tumour cell line growth inhibition, 48 h
READOUT_NAME: TGI (µM)
State the answer as a number, implicitly in µM.

Find the recorded TGI belonging to Cc1ccc(N=C/C=C(\Nc2ccc(C)cc2)c2ccc3ccccc3c2)cc1 and report it.
1.3

Try this compound next: C/C(=C\Cc1ccc(F)cc1)CCCCCC/C(C)=C/Cc1ccc(F)cc1
33

Then this compound: O=C1CS/C(=N/S(=O)(=O)c2ccc(N3N=C4c5ccccc5CC4C3c3cccs3)cc2)N1C(=O)c1ccccc1 (configuration not stated)
58.4

Likewise for O=C1C(N2CCN(CCOCCO)CC2)=C(Cl)C(=O)c2ncccc21 ?
43.8

And what about the compound CCCCNS(=O)(=O)c1ccc(-c2ccc3c(c2)-c2ccc(S(=O)(=O)NCCCC)cc2S3(=O)=O)cc1 ?
34.3

Now consider O=C1CC(c2cccc(Cl)c2)Oc2ccccc21 (configuration not stated) and answer again.
29.8

Please give the result for CC12CCC(=O)C(O1)C1C(=O)c3ccc4c(ccc5ccccc54)c3C(=O)C12 (configuration not stated) too.
2.86

Item: CC(C)C[C@H](NC(=O)Cn1cccc(CNC(=O)c2ccccc2)c1=O)B(O)O
3.54

Also, CC(CCc1nc2ccccc2s1)(c1ccc(O)cc1)c1ccc(O)cc1 please.
29.4

Also O=C1Nc2cccc(Cl)c2/C1=C\c1c(-c2ccccc2)nc2n1CCS2 , if possible.
45.6

----------
Would you kindly list TGI for each of these compounds?
System: MDA-N
Experiment: NCI tumour cell line growth inhibition, 48 h
Where a SMILES comes first, the peptide text is derived from it. The star is where a group is joined. Boc = CC(C)(C)OC(=O)*

Could you share which TGI value was measured for COc1ccc(/C=c2\[nH]c3nc(=O)c(N4CCCCC4)c(N)n3c2=O)cc1 ?
> 100 µM

Here is the next compound: COc1cccc(NC(=O)CC(=O)n2nc(-c3ccccc3)c(N=Nc3ccc(Cl)cc3)c2-c2ccccc2)c1
> 100 µM

Would you mind doing O=C1c2ccccc2C2(c3ccc(F)cc3)NCCN12 (centres undefined) as well?
> 100 µM

Then what about the compound S=C1C(=Nc2ccccc2)N(c2ccccc2)/C(=N\c2cccc[n+]2Cc2ccccc2)N1c1ccccc1 ?
25 µM

Try this compound next: Nc1ccc2c(=O)cc(-c3ccc(Br)s3)[nH]c2n1
1.29 µM

Item: Cc1cc(S(=O)(=O)Nc2nc3cscc3c(=O)n2N)c(S)cc1Cl
> 100 µM

Field entry: COC(=O)C(Cc1c[nH]c2ccccc12)NC(=O)C(Cc1c[nH]c2ccccc12)NC(=O)C(Cc1c[nH]c2ccccc12)NC(=O)C(Cc1c[nH]c2ccccc12)NC(=O)C(Cc1c[nH]c2ccccc12)NC(=O)C(Cc1c[nH]c2ccccc12)NC(=O)C(Cc1c[nH]c2ccccc12)NC(=O)OC(C)(C)C (centres undefined) (Boc-WWWWWWW-OMe; configuration not given here)
> 100 µM

Ok, now CC(=O)OCC1OC(SC2=NC(=O)CS2)C(OC(C)=O)C(OC(C)=O)C1OC(C)=O (centres undefined)
> 100 µM

Another: Cc1cc2nc3ccccc3n2c2ccccc12
> 10 µM

----------
Give measured TGI for each item. Keep answers brief.
Test system: SF-295 CNS
Assay: NCI tumour cell line growth inhibition, 48 h

Name the recorded TGI for Clc1ccc(-c2nn3c(COc4cccc(OCc5nnc6sc(-c7ccc(Cl)cc7)nn56)c4)nnc3s2)cc1 .
> 100 µM

Continue with COc1c(C)c(C/C=C(\C)CCCC(C)CCCC(C)CCCC(C)C)c(OC)c2ccccc12 (stereo not given)
> 100 µM

Another compound to look at: Oc1ccc(Cl)cc1-c1cc(-c2ccccc2)nc(=S)[nH]1
> 100 µM

What do you get for CCCCCCCC(=O)[O-].CCCCCCCC(=O)[O-].N.N.N.N.[Co+3].[O-][Cl+3]([O-])([O-])[O-] ?
> 100 µM

And what about the compound Cc1cc(=O)[nH]c(NNC(C#N)c2ccccc2O)n1 (stereo not given) ?
> 100 µM

----------
Test system: UACC-62 melanoma
Experiment: NCI tumour cell line growth inhibition, 48 h
READOUT_NAME: TGI (µM)
I only need the number, in µM, no unit after it.

Please look up its TGI: Oc1ccc2ccccc2c1OCc1nnc(CCCCCCCCc2nnc(COc3c(O)ccc4ccccc34)n2Nc2ccccc2)n1Nc1ccccc1
26.6

Also check CCN(CC)CCCNCc1cc(-c2ccccc2)nc2cc(Cl)ccc12
3.59

----------
Tested on: TK-10 renal
Experiment: NCI tumour cell line growth inhibition, 48 h
READOUT_NAME: TGI

// lookup TGI for Nc1nc(Cl)nc2c1ncn2C1OC(CO)C(O)C1F (stereo not given)
> 83 µM

Proceed to O=S(=O)(/N=S(/Nc1ccccc1)C(F)(F)Cl)c1ccccc1 (stereo not given)
> 100 µM

Also, Cc1c(OCc2cccc3ccccc23)ccc2c(=O)cc(SCCN3CCOCC3)oc12 please.
> 100 µM

Here is the next compound: O=c1[nH]cc(N=Cc2cc(Cl)ccc2O)c(=O)[nH]1
> 100 µM

Another compound to look at: O=C1c2ccncc2C(=O)c2c(O)ccc(O)c21
42.3 µM

Quick one: COc1cccc(C(C#N)NNC(=O)c2c(Cl)c(Cl)c(Cl)c(Cl)c2-c2nc3ccc(C(=O)c4ccccc4)cc3[nH]2)c1O (stereo not given)
> 100 µM

Another compound to look at: CCCCCCCC(=O)[O-].CCCCCCCC(=O)[O-].N.N.N.N.[Co+3].[O-][Cl+3]([O-])([O-])[O-]
> 100 µM

Check N#C/C(=C/N1CCN(C(=O)c2ccco2)C1=S)C(=O)Nc1ccc(Cl)cc1 too.
> 50 µM

What do you have for O=[N+]([O-])c1cc(/C=N\NS(=O)(=O)c2ccc(Cl)cc2)c(O)c([N+](=O)[O-])c1 ?
> 100 µM

Entry CC12CCC(=O)C(O1)C1C(=O)c3ccc4c(ccc5ccccc54)c3C(=O)C12 (stereo not given) please
7.89 µM

----------
Test system: DU-145 prostate
Assay: NCI tumour cell line growth inhibition, 48 h
So I've got a bunch of molecules here, and I need their TGI values.

Lab note: need TGI for COc1ccc(Nc2ncnc3ccc(-c4cncc(NS(C)(=O)=O)c4)cc23)cc1Cl on DU-145 prostate, anyone have it?
15.2 µM

And the next one, Cc1nn(C)c2ncnc(N/N=C/c3cccc(O)c3O)c12 ?
> 100 µM

Also need c1ccc2c(Nc3ncco3)cccc2c1 , thanks.
> 10 µM

# iterate: COC(=O)c1onc(C2OC(C)(C)OC2C(O)COC(c2ccccc2)(c2ccccc2)c2ccccc2)c1C(=O)OC (stereo not given)
> 100 µM

Now consider Cc1nc2ccc(Cl)cc2c2c1CCO2 and answer again.
> 100 µM

Proceed to COc1cc(S(=O)(=O)Nc2ccc(-c3csc(N4C(=O)C(Cl)C4c4ccccc4O)n3)cc2)ccc1Cl (stereo not given)
66.6 µM

Same question for CC(C)[C@H](C)/C=C/[C@@H](C)C1CC[C@H]2[C@@]34C=C[C@]5(C[C@@H](O)CC[C@]5(C)[C@H]3CC[C@]12C)OO4 (stereo not given in full) please.
56 µM

Repeat for the following molecule: CN1CCN(CCCOc2ccc3nc(Nc4ccc(F)c(F)c4)ccc3c2)CC1
11.5 µM

Quick one: O=c1cc(-c2ccccc2)[nH]c2c1CCCC2
8.35 µM

How about Cc1ccc(-n2nncc2[Si](C)(C)C)s1 ?
> 100 µM

Another molecule to check: CN1CCN(Cc2ccc(NC(=O)c3[nH]ncc3Nc3ncnc4[nH]ccc34)cc2)CC1
> 100 µM

Check CCOC(=O)C1CCC(=O)N1C(=O)c1cccc(Cl)c1 (stereo not given) too.
> 100 µM

// repeat for Oc1ccc2ccccc2c1OCc1nnc(CCCCCCCCc2nnc(COc3c(O)ccc4ccccc34)n2Nc2ccccc2)n1Nc1ccccc1 and report
> 70.1 µM

Moving on to the next molecule: CN1CCN(C(=O)c2ccc(NC(=O)Nc3ccc(-c4nc(N5CCOCC5)c5cccn5n4)cc3)cc2)CC1
12 µM

Repeat for the following molecule: Cc1c(Nc2nccc3cc(CN4CC[C@@H](O)C4)cnc23)cccc1-c1cccc(-c2nc3cc(CN4CC[C@@H](C(=O)O)C4)cc(C#N)c3o2)c1C
> 100 µM

One more molecule: COC(=O)/C=C\n1nc(Br)c(=O)[nH]c1=O
> 100 µM

Now try CCOC(=O)c1c(N2CCCC2)[nH]c(=O)c(C(c2ccc(N(C)C)cc2)c2c(O)c(C(=O)OCC)c(N3CCCC3)[nH]c2=O)c1O .
> 100 µM

Same question for Oc1ccc(Cl)cc1-c1cc(-c2ccccc2)nc(=S)[nH]1 please.
> 100 µM

Cool, now O=S(=O)(/N=S(/Nc1ccccc1)C(F)(F)Cl)c1ccccc1 (stereo not given)
> 100 µM

Please answer likewise for C1CSC[C@H]2COC[C@@H](CSCCS1)S2
> 100 µM

# iterate: O=C(O)COc1ccc(OCC(=O)O)cc1
12.7 µM

What about O=C(O)Cn1c2c(c3c1-c1ccccc1C3=O)C(=O)CCC2 ?
> 100 µM

Then what about the molecule C=CC1C(CC2OC(CO)C(O)C(O)C2O)OC=C2C(=O)OCCC21O (stereo not given) ?
62.6 µM

Lookup COc1cc(S(=O)(=O)Nc2nc(-c3ccc(N4C(=O)C(C)SC4c4ccccc4O)cc3)cs2)ccc1Cl (stereo not given)
> 100 µM

Also check CCC[CH2][Sn]([CH2]CCC)([CH2]CCC)/[C](=C/[Si](C)(C)c1ccccc1)c1ccc2c(c1)OCO2
48.6 µM
